# Test system: P-gp (MDR1)
# Protocol details: MDCK-MDR1 permeability assay
# Type: in vitro ADME
# Study conditions: dog, MDCK-MDR1, pH 7.4; apical-to-basolateral, without elacridar, 5 μM, 60 min
Reported endpoint: Papp A→B at 60 min, 5 µM (×10⁻⁶ cm/s)
Unit ×10⁻⁶ cm/s implied. Number only.

Q: Need Papp A→B at 60 min, 5 µM of N#CC[C@H]1CC[C@H](n2c(-c3c[nH]cn3)nc3cnc4[nH]ccc4c32)CC1 , thanks.
Result: 1.1

====

# System name: JAK2-JH1JH2 (Homo sapiens (Human), UniProt O60674)
# Sequence (O60674 532-1132): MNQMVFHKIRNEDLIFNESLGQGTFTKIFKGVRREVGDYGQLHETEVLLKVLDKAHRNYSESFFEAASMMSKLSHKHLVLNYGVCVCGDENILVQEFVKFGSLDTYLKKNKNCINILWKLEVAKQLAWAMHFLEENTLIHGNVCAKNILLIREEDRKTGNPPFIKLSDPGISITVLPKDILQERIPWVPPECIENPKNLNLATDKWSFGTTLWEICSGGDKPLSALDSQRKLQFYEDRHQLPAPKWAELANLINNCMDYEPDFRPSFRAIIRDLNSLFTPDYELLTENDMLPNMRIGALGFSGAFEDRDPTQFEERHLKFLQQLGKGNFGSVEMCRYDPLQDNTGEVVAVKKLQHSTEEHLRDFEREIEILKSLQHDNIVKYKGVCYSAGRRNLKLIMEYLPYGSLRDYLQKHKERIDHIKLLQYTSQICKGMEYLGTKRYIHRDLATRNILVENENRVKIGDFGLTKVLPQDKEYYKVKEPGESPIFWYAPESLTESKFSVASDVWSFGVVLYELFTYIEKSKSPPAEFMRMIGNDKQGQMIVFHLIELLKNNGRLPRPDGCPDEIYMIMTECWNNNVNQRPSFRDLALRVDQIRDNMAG
Reported endpoint: IC50 (nM)
Unit nM implied. Number only.

Q: Need IC50 of N#CC[C@H]1CC[C@H](n2c(-c3c[nH]cn3)nc3cnc4[nH]ccc4c32)CC1 , thanks.
Result: 1

====

# System name: UniProt P23458
# Sequence (P23458 574-1154): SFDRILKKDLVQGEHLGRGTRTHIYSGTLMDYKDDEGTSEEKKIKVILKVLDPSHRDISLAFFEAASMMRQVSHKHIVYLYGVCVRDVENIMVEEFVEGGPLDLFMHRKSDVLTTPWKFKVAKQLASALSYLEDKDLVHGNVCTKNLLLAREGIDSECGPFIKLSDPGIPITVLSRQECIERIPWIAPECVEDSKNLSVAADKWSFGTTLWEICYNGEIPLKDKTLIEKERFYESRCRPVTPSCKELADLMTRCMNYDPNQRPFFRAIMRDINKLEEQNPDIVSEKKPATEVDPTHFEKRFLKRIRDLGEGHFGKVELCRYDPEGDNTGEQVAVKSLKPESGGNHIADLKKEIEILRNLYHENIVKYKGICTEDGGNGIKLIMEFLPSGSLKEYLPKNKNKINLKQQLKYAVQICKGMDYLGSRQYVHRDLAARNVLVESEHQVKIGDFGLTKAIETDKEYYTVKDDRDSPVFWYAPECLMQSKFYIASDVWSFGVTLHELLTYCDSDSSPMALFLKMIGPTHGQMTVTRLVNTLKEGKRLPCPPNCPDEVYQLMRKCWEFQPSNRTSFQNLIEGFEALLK
Reported endpoint: pIC50
Please express pIC50 as -log10 of the molar concentration.

Q: Need pIC50 of N#CC[C@H]1CC[C@H](n2c(-c3c[nH]cn3)nc3cnc4[nH]ccc4c32)CC1 , thanks.
Result: 9.70

====

# System name: JAK3-JH1JH2 (Homo sapiens (Human), UniProt P52333)
# Sequence (P52333 512-1124): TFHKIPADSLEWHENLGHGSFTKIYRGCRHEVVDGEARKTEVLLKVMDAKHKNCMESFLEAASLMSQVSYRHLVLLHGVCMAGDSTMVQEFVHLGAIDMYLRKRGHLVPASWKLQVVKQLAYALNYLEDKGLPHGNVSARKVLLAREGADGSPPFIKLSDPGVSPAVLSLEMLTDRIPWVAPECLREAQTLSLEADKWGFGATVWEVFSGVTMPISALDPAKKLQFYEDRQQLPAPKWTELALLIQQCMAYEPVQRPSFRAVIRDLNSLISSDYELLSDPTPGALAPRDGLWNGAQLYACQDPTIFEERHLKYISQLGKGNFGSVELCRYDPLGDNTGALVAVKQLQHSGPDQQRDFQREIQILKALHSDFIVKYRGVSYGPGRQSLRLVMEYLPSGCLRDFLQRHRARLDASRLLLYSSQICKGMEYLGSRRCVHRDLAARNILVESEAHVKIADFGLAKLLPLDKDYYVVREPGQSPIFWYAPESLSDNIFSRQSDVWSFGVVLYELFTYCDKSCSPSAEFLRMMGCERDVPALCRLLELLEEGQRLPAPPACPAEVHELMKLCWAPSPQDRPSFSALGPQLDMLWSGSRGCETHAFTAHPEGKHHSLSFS
# Protocol details: Enzymatic inhibition assay (HTMS), JAK3
# Type: biochemical
# Study conditions: 150 μM ATP; read-out: JAK3_I_JH1JH2 IC50
Reported endpoint: pIC50
Please express pIC50 as -log10 of the molar concentration.

Q: Reported pIC50 for JAK3-JH1JH2 (Homo sapiens (Human), UniProt P52333), given N#CC[C@H]1CC[C@H](n2c(-c3c[nH]cn3)nc3cnc4[nH]ccc4c32)CC1 ?
Result: 7.47

====

# System name: Tyk2-JH1JH2 (Homo sapiens (Human), UniProt P29597, C1142A/C936A)
# Sequence (P29597 580-1182 C936A/C1142A): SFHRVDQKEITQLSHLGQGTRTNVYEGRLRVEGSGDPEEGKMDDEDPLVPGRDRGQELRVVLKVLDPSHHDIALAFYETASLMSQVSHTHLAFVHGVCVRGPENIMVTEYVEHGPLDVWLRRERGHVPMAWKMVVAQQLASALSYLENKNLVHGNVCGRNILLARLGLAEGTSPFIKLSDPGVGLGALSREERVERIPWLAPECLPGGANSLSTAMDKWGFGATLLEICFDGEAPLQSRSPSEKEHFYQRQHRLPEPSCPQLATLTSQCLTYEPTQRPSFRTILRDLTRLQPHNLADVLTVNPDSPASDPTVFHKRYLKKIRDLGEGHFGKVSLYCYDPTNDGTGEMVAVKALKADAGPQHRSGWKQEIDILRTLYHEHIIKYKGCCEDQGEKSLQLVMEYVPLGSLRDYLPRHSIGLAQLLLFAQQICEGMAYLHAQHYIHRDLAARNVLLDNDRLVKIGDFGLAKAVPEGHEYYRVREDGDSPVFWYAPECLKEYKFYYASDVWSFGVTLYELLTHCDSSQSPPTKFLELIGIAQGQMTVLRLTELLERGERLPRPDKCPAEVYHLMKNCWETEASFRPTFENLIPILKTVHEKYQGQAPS
# Protocol details: Enzymatic inhibition assay (HTMS), Tyk2
# Study conditions: 50 μM ATP; read-out: Tyk2_I_JH1JH2 IC50
Reported endpoint: pIC50
Please express pIC50 as -log10 of the molar concentration.

Q: Need pIC50 of N#CC[C@H]1CC[C@H](n2c(-c3c[nH]cn3)nc3cnc4[nH]ccc4c32)CC1 , thanks.
Result: 8.82

====

# Protocol details: Plasma and colon concentrations after p.o. dosing (Protocols 1 and 2)
# Type: in vivo, female C57BL/6 mice
# Study conditions: female, C57BL/6, mouse, plasma, po; mice, 25 mg/kg p.o., Time = 4 h; read-out: Plasma Concentration After p.o. Dosing, Mean
Reported endpoint: concentration at 4 h (ng/mL)
Unit ng/mL implied. Number only.

Q: Need concentration at 4 h of N#CC[C@H]1CC[C@H](n2c(-c3c[nH]cn3)nc3cnc4[nH]ccc4c32)CC1 , thanks.
Result: 1.3

====

# Protocol details: physchem
# Study conditions: simulated gastric fluid, thermodynamic from solid
Reported endpoint: solubility

Q: Need solubility of N#CC[C@H]1CC[C@H](n2c(-c3c[nH]cn3)nc3cnc4[nH]ccc4c32)CC1 , thanks.
Result: > 400 µM
